System: Protein deacetylase HDAC6 (Homo sapiens) | Read-out: pIC50 | Origin: multiple publications
pIC50: −log10 of the molar value.

Examples with their reported pIC50 follow.
                                   compound        result
0    O=C(CCCCCCN(c1ccccn1)c1ccc2ccccc2n1)NO          7.80
1  Cc1onc(-c2ccc(F)cc2)c1C(=O)N1CCc2cc(C(=O)NO)sc2C1        > 7.30
2  Cc1c(C(=O)NO)sc2c1CN(C(=O)c1sc3ccccc3c1Cl)CC2  7.00 to 7.30

Each compound below has a reported value. Please supply its pIC50.
1. CN(C)Cc1cc(C(=O)Nc2ccc3ncc(C(=O)NO)cc3c2)cc(C(F)(F)F)c1
2. O=C(NO)c1cc2c(s1)CN(C(=O)c1cscn1)CC2
3. CCc1nc2cc(F)c(/C=C/C(=O)NO)cc2c(=O)n1-c1c(C)cccc1C

1. 6.30 to 7.00
2. > 7.30
3. 8.70

Each compound below has a reported value. Please supply its pIC50.
1. CC(N)(Cc1ccccc1)C(=O)N1CCc2cc(C(=O)NO)ccc2C1 (stereo not shown)
2. O=C(NO)c1ccc2c(c1)CCN(C(=O)c1cc3ccccc3[nH]1)C2
3. Cc1c(C(=O)N2CCc3cc(C(=O)NO)ccc3C2)cnn1-c1ccccc1
4. O=C(CCCCCCN(c1cnccn1)c1nccn2ncnc12)NO
5. C[C@@H](NC(=O)c1ccc(-c2ccccc2)cc1)c1cc(C(=O)NO)on1

6.30 to 7.00
> 7.30
7.00 to 7.30
≥ 7.00
< 6.30

Each compound below has a reported value. Please supply its pIC50.
1. O=C(NO)c1cc2c(s1)CN(C(=O)CC1c3ccccc3-c3ccccc31)CC2
2. CCCCN(Cc1ccc(C(=O)NO)cc1)C(=O)Nc1ccccc1OC
3. O=C(NO)c1ccc(NC2(c3ccccc3)CC2)cc1
4. Cc1nc(C(F)(F)F)c(C(=O)N2CCc3cc(C(=O)NO)sc3C2)s1
5. CC1(C(=O)N2CCc3cc(C(=O)NO)sc3C2)CCCCC1

["< 6.00", 8.67, "8.60 to 9.30", "> 7.30", "> 7.30"]

Each compound below has a reported value. Please supply its pIC50.
1. Cc1noc(-c2ccccc2)c1NC(=O)NC(C)c1ccc(C(=O)NO)s1 (stereo not shown)
2. O=C(NO)c1ccc2c(c1)CCCN(C(=O)c1cccs1)C2

1. 6.30 to 7.00
2. 6.30 to 7.00

I'd like to know its pIC50. The compound in question is O=C(NO)c1ccc2c(c1)CCCN(C(=O)c1csc3ccccc13)C2
6.30 to 7.00
